TARGET SYSTEM: NS3h 2a[JFH1]
PROTOCOL TEXT: NS3h unwinding inhibitors, genotype 1b and 2a – biochemical, real-time fluorescence, strains con1 and JFH1, set 3, selectivity assay for HCV NS3 helicase inhibitor project, late-stage follow-up (AID 602275)
RUN CONDITIONS: Recombinant NS3h
Calls of active or inactive are those of the source. No rule for the calls is given here.
Outcome (select one): yes (active), no (inactive)

Solved entries:
INSERT INTO assay_data (molecular_string, class_assignment) VALUES
  ('Cc1ccc2nc(-c3ccc(NC(=O)c4ccc(N)cc4)cc3)sc2c1S(=O)(=O)O', 'no'),
  ('Cc1ccc2nc(-c3ccc4nc(-c5ccc(NC(=O)c6ccc(N)cc6)cc5)sc4c3)sc2c1S(=O)(=O)O', 'yes'),
  ('COc1cccc2c(=O)c3cc(Cl)cc(C(=O)Nc4cc(Cl)ccn4)c3[nH]c12', 'yes');

Hi team, can someone confirm the assay call for "Cc1ccc2nc(-c3ccc4nc(-c5ccc(NC(=O)c6cccc(Cl)c6)cc5)sc4c3)sc2c1S(=O)(=O)O" ?
yes

Item: "Cc1ccc2nc(-c3ccc4nc(-c5ccc(NC(=O)c6cccc7ccccc67)cc5)sc4c3)sc2c1S(=O)(=O)O"
yes

Item: "Cc1ccc2nc(-c3ccc(NC(=O)c4ccc(NC(=O)OCC5c6ccccc6-c6ccccc65)cc4)cc3)sc2c1S(=O)(=O)O"
yes

Item: "Cc1ccc2nc(-c3ccc(NC(=O)c4ccc(NC(=O)c5ccc(NC(=O)OCC6c7ccccc7-c7ccccc76)cc5)cc4)cc3)sc2c1S(=O)(=O)O"
yes

Item: "Cc1cc2sc(-c3ccc(N)cc3)nc2cc1S(=O)(=O)O"
no

* * *

Measured IC50 of individual entries
TARGET SYSTEM: NS3h 1b[con1]
PROTOCOL TEXT: NS3h unwinding inhibitors, genotype 1b and 2a – biochemical, real-time fluorescence, strains con1 and JFH1, set 3, selectivity assay for HCV NS3 helicase inhibitor project, late-stage follow-up (AID 602275)
RUN CONDITIONS: Recombinant NS3h

Record excerpt, results attached:
INSERT INTO measurements (molecular_string, measure, assay_value) VALUES
  ('Cc1ccc2nc(-c3ccc4nc(-c5ccc(NCc6ccccc6)cc5)sc4c3)sc2c1S(=O)(=O)O', 'IC50', '11 µM'),
  ('Cc1ccc(NC(=O)Nc2ccc(-c3nc4ccc(-c5nc6ccc(C)c(S(=O)(=O)O)c6s5)cc4s3)cc2)cc1', 'IC50', '5.3 µM'),
  ('Cc1ccc2nc(-c3ccc4nc(-c5ccc(NC(=O)Nc6ccc(Cl)cc6)cc5)sc4c3)sc2c1S(=O)(=O)O', 'IC50', '3.6 µM');

Would you kindly look at the next entry?
Which IC50 value belongs to "Cc1ccc2nc(-c3ccc4nc(-c5ccc(NC(=O)c6ccc(Cl)cc6)cc5)sc4c3)sc2c1S(=O)(=O)O" ?
3.4 µM

* * *

TARGET SYSTEM: NS3h 2a[JFH1]
PROTOCOL TEXT: NS3h unwinding inhibitors, genotype 1b and 2a – biochemical, real-time fluorescence, strains con1 and JFH1, set 3, selectivity assay for HCV NS3 helicase inhibitor project, late-stage follow-up (AID 602275); call rule not given here
RUN CONDITIONS: Recombinant NS3h
Outcome (select one): active, inactive

Solved entries:
INSERT INTO assay_data (compound, class_assignment) VALUES
  ('Cc1ccc2nc(-c3ccc4nc(-c5ccc(NC(=O)c6cccnc6)cc5)sc4c3)sc2c1S(=O)(=O)O', 'active'),
  ('Cc1ccc2nc(-c3ccc4nc(-c5ccc(NC(=O)c6ccccc6C(F)(F)F)cc5)sc4c3)sc2c1S(=O)(=O)O', 'active');

Hi team, can someone confirm the assay call for "Cc1ccc2nc(-c3ccc(NC(=O)c4ccc(NC(=O)c5ccc(N)cc5)cc4)cc3)sc2c1S(=O)(=O)O" ?
active

Item: "Cc1ccc2nc(-c3ccc4nc(-c5ccc(NC(=O)Nc6ccccc6)cc5)sc4c3)sc2c1S(=O)(=O)O"
active

Item: "Cc1ccc2nc(-c3ccc4nc(-c5ccc(NC(=O)c6ccc(C(F)(F)F)cc6)cc5)sc4c3)sc2c1S(=O)(=O)O"
active

Item: "Cc1ccc(NC(=O)Nc2ccc(-c3nc4ccc(-c5nc6ccc(C)c(S(=O)(=O)O)c6s5)cc4s3)cc2)cc1"
active

Ref: PubChem BioAssay AID602275
